Reference source for all entries: the supplement of paper PMC12645437

Target Desc: T1, CRBN, Q96SW2;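 note: pooled lentiviral library of zinc finger degron-EGFP fusions in mCherry-positive Jurkat cells, FACS-sorted after compound exposure, with degron abundance counted by next-generation sequencing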
T1 chain: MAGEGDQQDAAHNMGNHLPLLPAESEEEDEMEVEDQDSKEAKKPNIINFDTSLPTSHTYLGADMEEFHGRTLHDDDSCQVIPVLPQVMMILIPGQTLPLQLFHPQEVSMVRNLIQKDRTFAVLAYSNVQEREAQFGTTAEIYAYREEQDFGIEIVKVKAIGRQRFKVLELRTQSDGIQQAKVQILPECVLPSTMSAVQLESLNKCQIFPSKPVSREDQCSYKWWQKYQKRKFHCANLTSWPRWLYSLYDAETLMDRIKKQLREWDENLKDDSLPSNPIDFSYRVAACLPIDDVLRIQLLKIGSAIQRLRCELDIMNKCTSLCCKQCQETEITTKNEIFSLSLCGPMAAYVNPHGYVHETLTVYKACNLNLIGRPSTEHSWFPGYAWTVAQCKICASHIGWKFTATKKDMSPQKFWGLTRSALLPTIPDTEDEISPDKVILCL
Procedure Text: log2 fold change of degron read counts, EGFP-low vs EGFP+ sorted cells (limma voom), compound-induced degradation; higher = more compound-induced degradation of the degron-EGFP fusion; degrons are variants of IKZF1/3 zinc finger 2; compound dose not given here
Condition: Jurkat; 18 h; compound: compound 33 (diphenyl IMiD analogue)
The full ranking holds about 8,300 sequences; the median of “log2 fold change of degron read counts, EGFP-low vs EGFP+ sorted cells (limma voom), compound-induced degradation” is about -1.1, and the highest 2% start at about 3.2. The full list was thinned out, with the highest values kept by preference.
Measurement Type: log2 fold change of degron read counts
One number for each entry.

>>> numeric_value("FYCDQCGAFFTQKGNLLRHIKL [46F_47Y_49D_50Q_52G_53A_54F_55F_67L_, Q9UKT9]")
-1.35
>>> numeric_value("FFCNQCGHDFTQKGNLLRHIKL [46F_47F_49N_50Q_52G_53H_54D_55F_67L_, Q9UKT9]")
-2.94
>>> numeric_value("LTCNQCGFLCTQKGNLLRHIKL [46L_47T_49N_50Q_52G_53F_54L_55C_67L_, Q9UKT9]")
-2.25
>>> numeric_value("FGCDICGALFTQKGNLLRHIKL [46F_47G_49D_50I_52G_53A_54L_55F_67L_, Q9UKT9]")
0.626
>>> numeric_value("FYCEICGAMFTQKGNLLRHIKL [46F_47Y_49E_50I_52G_53A_54M_55F_67L_, Q9UKT9]")
2.55

For the 5 sequences below, give their log2 fold change of degron read counts values.
1. FICEQCGAEFTQKGNLLRHIKL [46F_47I_49E_50Q_52G_53A_54E_55F_67L_, Q9UKT9]
2. FECEICGHGFTQKGNLLRHIKL [46F_47E_49E_50I_52G_53H_54G_55F_67L_, Q9UKT9]
3. FICEICGAMFTQKGNLLRHIKL [46F_47I_49E_50I_52G_53A_54M_55F_67L_, Q9UKT9]
4. FNCNICGANFTQKGNLLRHIKL [46F_47N_49N_50I_52G_53A_54N_55F_67L_, Q9UKT9]
5. FDCNQCGRPFTQKGNLLRHIKL [46F_47D_49N_50Q_52G_53R_54P_55F_67L_, Q9UKT9]

(A)
1: -1.09; 2: -2.59; 3: 2.3; 4: -0.393; 5: -2.47
